FYI, the data here is from PubChem BioAssay (NCI).

Test system: MDA-MB-468 breast
Test: NCI-60 one-dose screen, 48 h
Details: 10 µM unless noted
About 83,000 compounds went through this panel and 20% of them were active in at least one assay; those are over-represented in the sample as a whole. Activity calls are given as the source filed them. Rule for the calls: active = growth percent below 10; inactive = the rest.
Valid outcomes are listed here; reply with one: active, inactive

Oc1ccc(Cl)cc1-c1cc(-c2ccc(F)cc2)n[nH]1	active
COc1nc2c(cc1S(=O)(=O)c1ccccc1)CCc1c-2cnn1-c1ccccc1	inactive
CNC1=C([N+](=O)[O-])C(c2ccc(OC)cc2)C(C#N)=C(c2cccs2)O1 (stereo not given)	inactive
Cn1cc(-c2nc(-c3c[nH]c4c(Cl)nccc34)cs2)c2cc(Br)ccc21	inactive

Can you look up the reported call for `Cc1cccc(N2CCN(C(=S)c3ccc4c(c3)OCO4)CC2)c1` for me?
active
